Where do these numbers come from? They come from PubChem BioAssay (NCI).

Test system: SK-OV-3 ovarian
PROCEDURE SUMMARY: NCI tumour cell line growth inhibition, 48 h; in the data active = GI50 below about 0.43 µM; inactive = the rest
Pick from active, inactive when you respond.

Illustrative cases are given below, each with its answer.
[[record]]
molecule = "O=C(/C=C/c1cccc([N+](=O)[O-])c1)c1ccc(O)c(CN2CCN(c3cc4c(cc3F)c(=O)c(C(=O)O)cn4C3CC3)CC2)c1"
class = "inactive"

[[record]]
molecule = "Cc1cccc(Cl)c1NC(=O)c1cnc(Nc2cc(N3CCOCC3)cc(N3CCOCC3)c2)s1"
class = "active"

[[record]]
molecule = "COc1ccc(-c2cn(-c3cccc(C(=O)/C=C/c4ccc(O)c(OC)c4)c3)c(=O)[nH]2)cc1"
class = "inactive"

[[record]]
molecule = "Cn1c(/C=C(\\C#N)c2cccc(C(F)(F)F)c2)nc2c(N3CCOCC3)nc(Cl)nc21"
class = "inactive"

[[record]]
molecule = "COc1ccc([I+]c2ccccc2)cc1"
class = "inactive"

[[record]]
molecule = "COc1ccc(SC2c3ccc(C)cc3Oc3nc(N)c(C#N)c(N)c32)cc1 (centres undefined)"
class = "inactive"

[[record]]
molecule = "Oc1ccc2ccccc2c1C1NN=C(c2ccccc2)S1 (centres undefined)"
class = "inactive"

[[record]]
molecule = "COc1ccc2c(c1)c1nc3cc(C)c(C)cc3nc1n2CCN(C)C"
class = "inactive"


Moving on to the next molecule.
For this molecule, state the assay outcome: Cc1ccc(C(=O)/C(=C\c2ccc([N+](=O)[O-])cc2)S(=O)Cc2ccc(F)cc2)cc1 (centres undefined) inactive

---

Tested on: SN12C renal
PROCEDURE SUMMARY: NCI tumour cell line growth inhibition, 48 h
QUANTITY MEASURED: TGI (µM)
Reply numerically in µM, unit not repeated.

[[record]]
mol_smiles = "O=C1C(Cl)=C(Nc2cccc(O)c2)C(=O)N1Cc1ccc(Cl)cc1"
quantity_measured = "TGI"
measured = 8.5


Recall the reported TGI of O=c1oc(-c2ccccc2)cc2cccc(O)c12 on SN12C renal and write it down. 51.2

Recall the reported TGI of COC(=O)c1c(O)ccc2c1c1c(n2Cc2ccccc2OC)C(=O)c2ccccc2C1 on SN12C renal and write it down. 74.9

---

Test system: NCI-H522 lung
PROCEDURE SUMMARY: NCI tumour cell line growth inhibition, 48 h
QUANTITY MEASURED: TGI (µM)
Reply numerically in µM, unit not repeated.

Solved cases below.
[[record]]
compound = "Cn1c(/C=C(\\C#N)c2cccc(C(F)(F)F)c2)nc2c(N3CCOCC3)nc(Cl)nc21"
measured = 2.32

[[record]]
compound = "Cc1ccc(-c2cc(=O)c3cc(C)c(C)c(C(=O)O)c3o2)cc1"
measured = 54.5

[[record]]
compound = "Cc1ccc(C(=O)/C(=C\\c2ccc([N+](=O)[O-])cc2)S(=O)Cc2ccc(F)cc2)cc1 (centres undefined)"
measured = 3.01


Give a short answer stating reported TGI for COc1cc(C=O)c(-c2cc3c(cc2C2(C)OCCS2)OCO3)c(OC)c1OC (centres undefined) . 13

---

Test system: HOP-92 NSCLC
PROCEDURE SUMMARY: NCI tumour cell line growth inhibition, 48 h
QUANTITY MEASURED: TGI (µM)
Reply numerically in µM, unit not repeated.

[[record]]
compound = "COc1ccc([I+]c2ccccc2)cc1"
measured = 81.9


Recall the reported TGI of CC(O)c1cc2c(s1)C(=O)c1scc(C(C)O)c1C2=O (configuration not stated) on HOP-92 NSCLC and write it down. 7.07

Recall the reported TGI of CC1(C)N=C(N)N=C(N)N1c1ccc(CCc2ccc(Cl)cc2S(=O)(=O)F)c(Cl)c1 on HOP-92 NSCLC and write it down. 58.3

Recall the reported TGI of CC(C)[NH-].CC(C)[NH-].O.O.[Cl][Pt+2][Cl] on HOP-92 NSCLC and write it down. 70.8

Recall the reported TGI of COc1ccc2oc(=Nc3ccc(F)cc3)c(C(N)=O)cc2c1 on HOP-92 NSCLC and write it down. 95.5

Recall the reported TGI of COc1ccc2c(c1)c1nc3cc(C)c(C)cc3nc1n2CCN(C)C on HOP-92 NSCLC and write it down. 2.12

---

System: SNB-75 CNS
PROCEDURE SUMMARY: NCI tumour cell line growth inhibition, 48 h
QUANTITY MEASURED: TGI

[[record]]
compound = "COc1ccc2c3c(c4ccccc4cc13)C(=O)N(CCN(C)CCN)C2=O"
target_or_system = "SNB-75 CNS"
measured = "1.37 µM"

[[record]]
compound = "COc1ccc([I+]c2ccccc2)cc1"
target_or_system = "SNB-75 CNS"
measured = "> 100 µM"


Give a short answer stating reported TGI for CCOc1cc2c(cc1O)CC[C@@H]1[C@@H]2CC[C@]2(C)C(OS(=O)OC3CC[C@@H]4[C@H]5CCc6cc(O)c(OCC)cc6[C@@H]5CC[C@@]34C)CC[C@@H]12 (some centres undefined) . 34.4 µM

Give a short answer stating reported TGI for CCOC(=O)C1C[C@H]2CO[C@H](c3ccccc3)N2C1=O (some centres undefined) . > 100 µM

Give a short answer stating reported TGI for O=C1[C@H]2ON(c3ccccc3)C(c3ccccc3F)[C@H]2C(=O)N1c1ccc(Cc2ccc(N3C(=O)[C@@H]4ON(c5ccccc5)C(c5ccccc5F)[C@@H]4C3=O)cc2)cc1 (some centres undefined) . > 100 µM

Give a short answer stating reported TGI for O=C1c2ccccc2-c2nnc(-c3ccc(Cl)cc3)cc21 . > 10 µM

Give a short answer stating reported TGI for Clc1ccc(C(c2ccc(Cl)cc2)N2CCNCC2)cc1 . 5.78 µM

Give a short answer stating reported TGI for O=C(Cc1ccccc1)N=Nc1c(O)[nH]c2ccccc12 . > 100 µM

Give a short answer stating reported TGI for C/C(CC(=O)Nc1ccc(Cl)cc1)=N\NC(=O)C[n+]1ccccc1 . > 100 µM

---

System: PC-3 prostate
PROCEDURE SUMMARY: NCI tumour cell line growth inhibition, 48 h
Returns Met if the recorded TGI is greater than or equal to 4 µM, and Not met otherwise.

[[record]]
molecule = "COc1ccc(/C=N\\NC(=O)Nc2cccc3ccccc23)cc1"
class = "Met"

[[record]]
molecule = "CCOC(=O)c1nc2cc(C(F)(F)F)ccc2nc1Nc1ccc(F)cc1"
class = "Met"

[[record]]
molecule = "CCOc1ccc2nc(-c3cccc(OCC(=O)NC(C)C)c3)nc(Nc3ccc(-c4cn[nH]c4)cc3)c2c1"
class = "Not met"

[[record]]
molecule = "COP(=O)(OC)c1ccc(NCc2cc(O)ccc2O)cc1"
class = "Met"


Is TGI at least 4 µM? Consider COc1ccc2nc3cc([N+](=O)[O-])ccc3c(NCCCN(CCO)CCO)c2c1 Met

Is TGI at least 4 µM? Consider COc1cc2c(cc1OC(=O)c1cc3ccccc3[nH]1)N=C[C@@H]1CCCN1C2=O Met

Is TGI at least 4 µM? Consider CC(=O)NC(C)c1ccc(N=NN2CCCC2)cc1 (stereo not given) Met

Is TGI at least 4 µM? Consider COc1ccc(N=N/C(=N/NC(=O)c2cc(Cl)ccc2C(=O)c2ccccc2)c2ccc(N(CCC#N)CCC#N)cc2C)cc1 Met

Is TGI at least 4 µM? Consider Cn1c(/C=C(\C#N)c2cccc(C(F)(F)F)c2)nc2c(N3CCOCC3)nc(Cl)nc21 Not met

---

Test system: 786-0 renal
PROCEDURE SUMMARY: NCI tumour cell line growth inhibition, 48 h
Catalogue of TGI readings, one per entry.

[[record]]
molecule = "N#Cc1ccc(Nc2cnc3ccc(N)cc3n2)cc1"
target_or_system = "786-0 renal"
measured = "> 100 µM"

[[record]]
molecule = "C[C@]12CC[C@H](O)CC1=CC[C@@H]1[C@@H]2CC[C@]2(C)c3nc(Cl)ccc3C[C@@H]12"
target_or_system = "786-0 renal"
measured = "> 100 µM"

[[record]]
molecule = "N#CCSc1c(-c2ccccc2)c(=O)n(-c2ccccc2)c(=S)n1-c1ccccc1"
target_or_system = "786-0 renal"
measured = "> 100 µM"

[[record]]
molecule = "CCCCNC(=S)c1ccc(OC(=O)Nc2ccc(Cl)cc2)cc1"
target_or_system = "786-0 renal"
measured = "> 100 µM"

[[record]]
molecule = "Nc1nc2ccc3[nH]ncc3c2c2c1CCCC2"
target_or_system = "786-0 renal"
measured = "9.85 µM"

[[record]]
molecule = "Nc1nc(NC2C=C(CO)C(O)C2O)c([N+](=O)[O-])c(=O)[nH]1 (stereo not given)"
target_or_system = "786-0 renal"
measured = "> 100 µM"


Give a short answer stating reported TGI for COc1cc(F)cc([C@@H](CO)NC(=O)[C@@H](C)N2Cc3ccc(-c4nc(NC5CCOCC5)ncc4Cl)cc3C2=O)c1 . > 100 µM

Give a short answer stating reported TGI for COc1c2c(c(CC=C(C)C)c3oc(=O)c(-c4ccc(O)cc4)c(O)c13)OC(C)(C)C=C2 . 71.3 µM

Give a short answer stating reported TGI for CC1(C)OCC(COC(=O)NCn2cc(-c3ccccc3)nn2)O1 (stereo not given) . > 100 µM

Give a short answer stating reported TGI for CC1(C)N=C(N)N=C(N)N1c1ccc(CCc2ccc(Cl)cc2S(=O)(=O)F)c(Cl)c1 . > 100 µM
